Every entry's value here was drawn from paper PMC9960243.

experimentalProtocol: Cytotoxic effect on mammalian cells (MTT, 72 h), RAW 264.7
Assay type: cell-based
measurementParameters: mouse, RAW 264.7 macrophages, pH 7.2, 100 µM
Procedure: RAW 264.7 lineage macrophages (available from the cell bank in Rio de Janeiro, Brazil) were used, grown in sterile bottles with DMEM medium, pH 7.2 containing 10% FBS and 1% penicillin 100 U/mL and streptomycin 100 μg/mL, and kept in an oven at 37 °C and 5% CO2. In a 96-well plate, RAW 264.7 macrophages were plated at 10^5 cells per well in 100 μL of supplemented DMEM medium. […] After 30 min of stirring, readings were taken at 540 nm. […]
readoutLabel: cytotoxicity at 72 h, 100 µM

Entry C=C/C(C)=C/CC=C(C)C [β-ocimene, beta-3,7-dimethyl-1,3,6-octatriene] — recorded cytotoxicity at 72 h, 100 µM = 46.3%
